# Test: melting temperature; fluorescence melt of hairpins on a sequencing array, two-state fit, raised by 9.35 °C to match UV melts
# Assay context: sodium 0.088 M
Tm by entry:
Measured endpoint: Tm (°C)

INSERT INTO results (sequence_string, endpoint_unit, measured_number) VALUES
  ('GATCGGGATCCCGATC ((((((....))))))', '°C', 59.5),
  ('GATCGATGCATCGATC ((((((....))))))', '°C', 59.7),
  ('GTTACCGGAAACGGTGAC ((.((((....)))).))', '°C', 51.2),
  ('GTGGGGGGAAACCCCCGC (.(((((....))))).)', '°C', 60),
  ('GATCAGTACTCTGATC ((((((....))))))', '°C', 50.4);
